target.of.assay: Alpha-bungarotoxin (Bungarus multicinctus)
test.details: alpha-bungarotoxin binders on microarray, profiling panel, artefact control for SMM control protein annotation, biochemical, small-molecule microarray, Alexa647 label, 635/667 nm fluorescence (AID 1117)
reported.conditions: alpha-BTX-A647 binding fluorescence, higher = more signal
composite z-score below 0.03 gives FALSE; composite z-score at or above it gives TRUE.

A selection of reference data follows.
O=C1CCCC=C1C(O)COCc1ccccc1 (configuration not stated)
TRUE
C=CC[C@@H]1C=C[C@H](ON=C2C[C@@H](O)[C@@H](O)[C@@H]3[C@@H]4C(=O)N(CC)C(=O)[C@@H]4CC[C@@H]23)[C@@H](CO)O1
FALSE
CC(=O)OC[C@H]1O[C@H](CC=NOC[C@@H](O)COCc2ccco2)C=C[C@@H]1OC(C)=O
FALSE
COC(=O)[C@H](C)NC(=O)CCC1CC(OC(=O)NCCc2ccc(F)cc2)CC2(CCCC(COC(=O)NCc3ccccc3)O2)O1 (some centres not stated)
TRUE
CCOC(=O)CCN1C(=O)[C@H]2[C@H]3[C@H](O)[C@H](O)CC(=NO[C@@H]4O[C@H](CO)[C@@H](O)[C@H](O)[C@H]4O)[C@@H]3CC[C@H]2C1=O
TRUE

Prompt: Can CCOC(=O)[C@H](Cc1ccccc1)NC(=O)CCC1CC(OC(=O)NCc2ccc3c(c2)OCO3)CC2(CCCC(COC(=O)NCCCN3CCCC3=O)O2)O1 (some centres not stated) be said to have composite z-score at or above 0.03?
Response: TRUE

Prompt: Check `CO[C@@H](C1CCCCC1)[C@@H](C)[C@H](OCc1cccc(Br)c1)[C@@H](C)CO` too.
Response: FALSE

* * *

test.details: E. coli acrAB mutant growth effects, primary screen, E. coli filamentation inducers, strain DRC39, OD650, 48 h (AID 1179);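 also: screen aims at cell division blockers that make cells filament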
reported.conditions: E. coli DRC39 delta-acrAB growth, higher = more signal, called active from +8 up or from −8 down
Assign y whenever z-score does not fall below 0.2; assign n whenever it does.

Would you please look over these solved cases?
CC(=O)OC[C@H]1O[C@H](CC=NOC(C)CN2CCCc3nc(C)c(C)cc32)C=C[C@@H]1OC(C)=O (stereo partly drawn)
n
CC(C)=CCCC(C)=CCON=C1C[C@@H](O)[C@@H](O)[C@@H]2[C@@H]3C(=O)N(Cc4ccc5c(c4)OCO5)C(=O)[C@@H]3CC[C@H]12
n
CC(C)=CCCC(C)=CCON=C1C[C@@H](O)[C@@H](O)[C@@H]2[C@@H]3C(=O)N(C4CCCCC4)C(=O)[C@@H]3CC[C@H]12
y
CCOC(=O)[C@H](Cc1ccccc1)NC(=O)CCC1CC(OC(=O)NCc2cccc3ccccc23)CC2(CCCC(COC(=O)NCc3ccc4c(c3)OCO4)O2)O1 (stereo partly drawn)
y
CC(CCC(=O)OC[C@H]1O[C@H](C#Cc2ccccc2)C=C[C@@H]1Oc1ccc(C)cc1)=NOC(C)CN1CCCCc2nc(C)c(C)cc21 (stereo partly drawn)
n
COc1ccc(COC(=O)NN=C2C[C@@H](O)[C@@H](O)[C@@H]3[C@@H]4C(=O)N([C@@H](C)c5ccccc5)C(=O)[C@@H]4CC[C@@H]23)cc1
y
CCOC(=O)CCN1C(=O)[C@H]2[C@H]3[C@H](O)[C@H](O)CC(=NNC(=O)OCc4ccccc4)[C@H]3CC[C@H]2C1=O
n
CCOC(=O)[C@H](Cc1ccccc1)NC(=O)CCC1CC(OC(=O)NCc2cccc3ccccc23)CC2(CCCC(COC(=O)NCCOc3ccccc3)O2)O1 (stereo partly drawn)
n

Prompt: # bool: z-score of CCc1cc2c(nc1CC)CCN(CCC(C)=NOC(C)CN1CCCCc3nc(C)c(C)cc31)C2 (stereo not drawn) >= 0.2
Response: n

Prompt: Would you kindly repeat that for CCOC(=O)[C@H](CC(C)C)NC(=O)CCC1CC(OC(=O)NCCc2ccc(F)cc2)CC2(CCCC(COC(=O)NCc3cccc(C(F)(F)F)c3)O2)O1 (stereo partly drawn) ?
Response: n

Prompt: Queued: `COc1ccc(COC(=O)NN=C2C[C@@H](O)[C@@H](O)[C@@H]3[C@@H]4C(=O)N(Cc5ccccc5)C(=O)[C@@H]4CC[C@@H]23)cc1`
Response: y

Prompt: One more molecule: `CC(C)=NO[C@H](C)c1cn([C@@H]2COC[C@H]2O)nn1`
Response: y

Prompt: How about this molecule: C[C@H]1CC[C@H]2C(=O)OC(COc3ccc(C(C)(C)C)cc3)CN2[C@@H]1c1ccc(Br)cc1 (stereo partly drawn)
Response: y

Data provenance: PubChem BioAssay
